# System: Lysinibacillus sphaericus
# assay.name: Antibacterial activity against Bacillus sphaericus MTCC 511 after 24 hrs by broth dilution method
# Assay type: functional
# condition.description: MTCC 511, 24 h
Measured MIC values are reported for all entries that follow.
Dear colleague, please return just the value in µg/mL, with no unit written.

Below, 4 molecules whose answers are already recorded.
COc1ccc2c(c1)C=C1C(=O)N(c3c(C)noc3/C=C/c3ccccc3)CN=C1O2 12
Cc1noc(/C=C/c2ccccc2)c1N1CN=C2Oc3c(Br)cc(Br)cc3C=C2C1=O 7
Cc1noc(/C=C/c2ccccc2)c1N1CN=C2Oc3ccccc3C=C2C1=O 12
Cc1noc(/C=C/c2ccccc2)c1-n1c(C)nc2nc3ccccc3cc2c1=O 22

Would you kindly look at the next entry?
Ask: What measured MIC goes with COc1ccc(/C=C/c2onc(C)c2-n2c(C)nc3nc4ccc(Cl)cc4cc3c2=O)cc1 ?
Reply: 10

* * *

# assay.name: Antifungal activity against Verticillium dahliae after 72 to 96 hrs by agar cup method
# Type: functional
measured.attribute: MIC (µg/mL)
Dear colleague, please return just the value in µg/mL, with no unit written.

Below, 6 compounds whose answers are already recorded.
compound	measured
COc1ccc(/C=C/c2onc(C)c2N2CN=C3Oc4ccc(Br)cc4C=C3C2=O)cc1	14
COc1ccc2c(c1)C=C1C(=O)N(c3c(C)noc3/C=C/c3ccccc3)CN=C1O2	20
Cc1ccc(/C=C/c2onc(C)c2-n2c(C)nc3nc4ccc(Cl)cc4cc3c2=O)cc1	11
COc1ccc(/C=C/c2onc(C)c2-n2c(C)nc3nc4ccc(Cl)cc4cc3c2=O)cc1	13
Cc1ccc(/C=C/c2onc(C)c2-n2c(C)nc3nc4ccccc4cc3c2=O)cc1	12
Cc1noc(/C=C/c2ccccc2)c1N1CN=C2Oc3ccccc3C=C2C1=O	18

Ask: What measured MIC goes with COc1ccc(/C=C/c2onc(C)c2-n2c(C)nc3nc4ccccc4cc3c2=O)cc1 ?
Reply: 14

* * *

# Tested on: Colletotrichum truncatum
# assay.name: Antifungal activity against Colletotrichum capsici after 72 to 96 hrs by agar cup method
# Type: functional
measured.attribute: MIC (µg/mL)
Dear colleague, please return just the value in µg/mL, with no unit written.

COc1ccc(/C=C/c2onc(C)c2-n2c(C)nc3nc4ccccc4cc3c2=O)cc1 16
Clc1ccccc1C(c1ccccc1)(c1ccccc1)n1ccnc1 20
Cc1noc(/C=C/c2ccccc2)c1N1CN=C2Oc3c(Br)cc(Br)cc3C=C2C1=O 10
Cc1noc(/C=C/c2ccccc2)c1-n1c(C)nc2nc3ccc(Cl)cc3cc2c1=O 11
Cc1noc(/C=C/c2ccccc2)c1-n1c(C)nc2nc3ccccc3cc2c1=O 15

Would you kindly look at the next entry?
Ask: What measured MIC goes with Cc1noc(/C=C/c2ccccc2)c1N1CN=C2Oc3c(Cl)cc(Cl)cc3C=C2C1=O ?
Reply: 16

* * *

# Test system: Lysinibacillus sphaericus
# assay.name: Antibacterial activity against Bacillus sphaericus MTCC 511 after 24 hrs by broth dilution method
# Assay type: functional
# condition.description: MTCC 511, 24 h
Measured MIC values are reported for all entries that follow.
Dear colleague, please return just the value in µg/mL, with no unit written.

Cc1ccc2c(c1)C=C1C(=O)N(c3c(C)noc3/C=C/c3ccccc3)CN=C1O2 18
Cc1ccc(/C=C/c2onc(C)c2N2CN=C3Oc4ccc(Cl)cc4C=C3C2=O)cc1 16
Cc1ccc(/C=C/c2onc(C)c2-n2c(C)nc3nc4ccc(Cl)cc4cc3c2=O)cc1 11
O=C(O)c1cn(C2CC2)c2cc(N3CCNCC3)c(F)cc2c1=O 24

Ask: What measured MIC goes with COc1ccc(/C=C/c2onc(C)c2-n2c(C)nc3nc4ccccc4cc3c2=O)cc1 ?
Reply: 22

Ask: What measured MIC goes with Cc1noc(/C=C/c2ccccc2)c1-n1c(C)nc2nc3ccc(Cl)cc3cc2c1=O ?
Reply: 16

Ask: What measured MIC goes with Cc1ccc(/C=C/c2onc(C)c2-n2c(C)nc3nc4ccccc4cc3c2=O)cc1 ?
Reply: 23

Ask: What measured MIC goes with COc1ccc(/C=C/c2onc(C)c2N2CN=C3Oc4ccc(Br)cc4C=C3C2=O)cc1 ?
Reply: 10

Ask: What measured MIC goes with Cc1noc(/C=C/c2ccccc2)c1N1CN=C2Oc3c(Cl)cc(Cl)cc3C=C2C1=O ?
Reply: 14
